Source of measurements: PubChem BioAssay (NCI)

Tested on: LOX IMVI melanoma
assayMethodText: NCI-60 one-dose screen, 48 h (100 = growth as untreated, 0 = no growth, -100 = all killed)
measurementContext: 10 µM unless noted
Compounds without any hit were thinned out: in the full panel of roughly 83,000, 20% have a hit.
Listed here are compounds together with their documented growth.
Numeric only. Scale: %

N#CCc1ccc(CC#N)cc1 = 101
CC[C@H](CC[C@@H](C)[C@H]1CC[C@H]2[C@@H]3CC[C@H]4C[C@]5(CC[C@]4(C)[C@H]3CC[C@]12C)OO[C@](C)(C(F)(F)F)O5)C(C)C = 92.9
Nc1ccc2c(c1)Cc1cc(N)ccc1-2 = 105

Continue with the compound presented below.
Prompt line: Bench note: what growth did `O=Cc1cn(Cc2ccccc2)c2ccccc12` show?
Response line: 79.4

###

System: K-562 leukemia
assayMethodText: NCI-60 one-dose screen, 48 h (100 = growth as untreated, 0 = no growth, -100 = all killed)
measurementContext: 10 µM unless noted
Compounds without any hit were thinned out: in the full panel of roughly 83,000, 20% have a hit. Calls of active or inactive are those of the source. Rule for the calls: active = growth percent below 10; inactive = the rest.
assayEndpoint: growth

Cc1cc(N(CCCl)CCCl)ccc1C=Nc1ccc(-c2csc(-c3ccccc3)n2)cc1 = 80.4% (inactive)

Prompt line: Bench note: what growth did `CC1(C)CN=C(NN=C(/C=C/c2ccc(C(F)(F)F)cc2)/C=C/c2ccc(C(F)(F)F)cc2)NC1` show?
Response line: -37.5% (active)

Prompt line: `O=c1[nH]c(=O)[nH]c(=O)[nH]1` , same question.
Response line: 65.2% (inactive)

Prompt line: `CN1[C@@H](CC(=O)c2ccccc2)CCC[C@H]1CC(=O)c1ccccc1` , same question.
Response line: 102% (inactive)

Prompt line: `O=C(NC1=NCC[Se]1)c1ccccc1O` , same question.
Response line: 50.7% (inactive)

Prompt line: `c1ccc2c(c1)sc1ccccc12` , same question.
Response line: 105% (inactive)

###

Test system: MOLT-4 leukemia
assayMethodText: NCI-60 one-dose screen, 48 h (100 = growth as untreated, 0 = no growth, -100 = all killed)
measurementContext: 10 µM unless noted
Compounds without any hit were thinned out: in the full panel of roughly 83,000, 20% have a hit.
Listed here are compounds together with their documented growth.
Numeric only. Scale: %

// worked examples, growth included
CC(C)COC(=O)Cc1ccccc1 = 103
CC12CCC3C4CCC(=O)C=C4CCC3C1CC1CC(=O)OC12 (configuration not stated) = 95.6
CCCCCCCCCCCCCCCC[N+](C)(C)C = -52.4
O=C(O)C(Br)CBr (configuration not stated) = 87.7
NC(N)=NC(N)=Nc1ccc(Cl)cc1 = 93.3
COc1ccc2c(c1)C1(C)CCN(C)CC(C1)C2O (configuration not stated) = 94.1
C=CC1CN2CCC1CC2C(O)c1ccnc2ccccc12 (configuration not stated) = 258
CC[C@H](C)[C@H](NC(=O)CN(C)C)C(=O)N(C)[C@H](C[C@@H](OC(C)=O)c1nc(C(=O)NC23C4C5C2C2C3C4C52C(=O)OC)cs1)C(C)C (some centres not stated) = 11
CN1[C@@H](CC(=O)c2ccccc2)CCC[C@H]1CC(=O)c1ccccc1 = 111
O=C(O)C(F)F = 102

Prompt line: Bench note: what growth did `Oc1cc(N2CC2)c(O)cc1N1CC1` show?
Response line: 9.13

Prompt line: `Oc1ccccc1C=NCCN=Cc1ccccc1O.[Fe]` , same question.
Response line: 30.7

###

Tested on: UACC-62 melanoma
assayMethodText: NCI-60 one-dose screen, 48 h
measurementContext: 10 µM unless noted
Compounds without any hit were thinned out: in the full panel of roughly 83,000, 20% have a hit. Active and inactive are the calls of the source. Rule for the calls: active = growth percent below 10; inactive = the rest.
Pick one: active, inactive

The examples below pair each entry with its known result.
CC(=O)OC1CC2(O)C(CCC3(C)C(c4ccc(=O)oc4)CCC32O)C2(C)CCC(OC3OC(CO)C(O)C(O)C3O)C=C12 (centres undefined) = active
C[C@]12C[C@H](c3ccoc3)OC(=O)[C@H]1CC[C@@]1(C)[C@@H]2[C@H]2C=C[C@]1(O)C(=O)O2 = inactive
C[C@]12CC[C@H]3[C@@H](CC=C4c5nc(N)sc5CC[C@@]43C)[C@@H]1CC[C@@H]2O = inactive
O=c1c2ccccc2nc(-c2ccccc2Cl)n1-c1nnc(C(F)(F)F)s1 = inactive
O=NN1CCCCC1 = inactive

Prompt line: Called result for `O=C1NC(=O)C(=C/C=C/c2ccccc2)C(=O)N1`
Response line: active

Prompt line: C[C@]12CCC3[C@@H](C[C@@H]4SC(Nc5ccccc5)=N[C@@]45CC(=O)CC[C@]35C)[C@@H]1CCC2=O (some centres undefined) , same question.
Response line: active

Prompt line: `CC[C@H](CC[C@@H](C)[C@H]1CC[C@H]2[C@@H]3CC[C@H]4C[C@]5(CC[C@]4(C)[C@H]3CC[C@]12C)OO[C@](C)(C(F)(F)F)O5)C(C)C` , same question.
Response line: inactive

Prompt line: `Cc1cc(Br)c([N+](=O)[O-])cc1[N+](=O)[O-]` , same question.
Response line: inactive

Prompt line: O=C1c2ccccc2C(=O)N1N1CC1c1ccccc1 (centres undefined) , same question.
Response line: inactive

Prompt line: `C#Cc1cccc(Nc2nc(Cl)nc3cc(NC(=O)CF)ccc23)c1` , same question.
Response line: inactive

Prompt line: `Cc1nnc([S-])o1.[Au+].c1ccc([PH+](c2ccccc2)c2ccccc2)cc1` , same question.
Response line: inactive

Prompt line: `C=CC[PH+](c1ccccc1)c1ccccc1.C=CC[PH+](c1ccccc1)c1ccccc1.[Pt+2].[S-]c1nc2ccccc2[nH]1.[S-]c1nc2ccccc2[nH]1` , same question.
Response line: active

Prompt line: `CC1(C)S[C@H]2CC[C@H]3OC(=O)[C@@H]1N23` , same question.
Response line: inactive

Prompt line: `NC(=O)Oc1cc(OC(N)=O)cc(N(CCCl)CCCl)c1` , same question.
Response line: inactive

Prompt line: C[N+]1(C)CCCC1c1cccnc1 (centres undefined) , same question.
Response line: inactive

Prompt line: `C[N+]1(CC#CC[N+]2(C)CCCC2)CCCC1` , same question.
Response line: inactive

Prompt line: `N#CCc1ccc(CC#N)cc1` , same question.
Response line: inactive

###

System: RXF 393 renal
assayMethodText: NCI-60 one-dose screen, 48 h
measurementContext: 10 µM unless noted
The panel holds about 83,000 compounds, 20% with a hit somewhere; the sample as a whole holds those more often. Calls of active or inactive are those of the source. Rule for the calls: active = growth percent below 10; inactive = the rest.
Pick one: 1 for active, -1 for inactive

The examples below pair each entry with its known result.
CC[C@H](C)[C@H](NC(=O)CN(C)C)C(=O)N(C)[C@H](C[C@@H](OC(C)=O)c1nc(C(=O)NC23CC(C(=O)OC)(C2)C3)cs1)C(C)C = 1
C[C@]12CC[C@H](O)C[C@@H]1CC[C@@H]1[C@@H]2CC[C@]2(C)OC(=O)CC[C@@H]12 = -1

Prompt line: Called result for `COC[C@H]1OC(=O)c2coc3c2[C@@]1(C)C1=C(C3=O)[C@@H]2CCC(=O)[C@@]2(C)C[C@H]1OC(C)=O`
Response line: -1

Prompt line: `CN1CCN(c2ccc(Cl)cc2)CC1` , same question.
Response line: -1

Prompt line: `C#COc1cccc(Nc2ncnc3cc(NC(=O)CF)ccc23)c1` , same question.
Response line: -1

Prompt line: `O=C1NC(=O)C(=C/C=C/c2ccccc2)C(=O)N1` , same question.
Response line: 1

Prompt line: `COc1cc2c(cc1OC)[C@@H]1C(=O)c3ccc4c(c3O[C@@H]1CO2)C[C@H](C(C)C)O4` , same question.
Response line: -1

Prompt line: `COc1cc2c(cc1OC)-c1c3c(cc4c1[C@@H](C2)N(C)CC4)OCO3` , same question.
Response line: -1

Prompt line: `OCCN=Cc1c[nH]c2ccccc12` , same question.
Response line: -1

Prompt line: `Cc1nc2ccccc2c(=O)n1-c1ccccc1F` , same question.
Response line: -1

Prompt line: `COc1ccc(CN)cc1OC` , same question.
Response line: -1

Prompt line: `CC[C@H](C)[C@H](NC(=O)c1cnccn1)C(=O)N(C)[C@H](C[C@@H](OC(C)=O)c1nc(C(=O)N[C@@H](Cc2ccccc2)C[C@H](C)C(=O)OC)cs1)C(C)C` , same question.
Response line: -1

Prompt line: `CC1(C)C=Cc2c(ccc3c2[N+]([O-])=C2C3=C[C@@]34NC(=O)[C@]5(CCCN5C3=O)C[C@@H]4C2(C)C)O1` , same question.
Response line: -1

###

Test system: LOX IMVI melanoma
assayMethodText: NCI-60 one-dose screen, 48 h
measurementContext: 10 µM unless noted
The panel holds about 83,000 compounds, 20% with a hit somewhere; the sample as a whole holds those more often. Activity calls are given as the source filed them. How the source made its calls: active means growth percent below 10; inactive means the rest.
Pick one: active, inactive

Cc1cc(N(CCCl)CCCl)ccc1/C=N\NC(=O)c1cccnc1 = inactive
O=[N+]([O-])c1ccc(P(=O)(O)O)cc1 = inactive
C[N+]12CCC34C5=CC(=O)C(=O)C=C5[N+]5(C)C(=O)CC6OCC=C(C1)C(CC32)C6C45 (stereo not given) = inactive
O=[N+]([O-])c1c(Cl)cc(Cl)c([N+](=O)[O-])c1Cl = inactive
OCCNC1CCCCC1 = inactive

Prompt line: Called result for `CCCCOCCOP(=O)(OCCOCCCC)OCCOCCCC`
Response line: inactive

Prompt line: `O=C(NC(Cl)=C(Cl)Cl)P(=O)(c1ccccc1)c1ccccc1` , same question.
Response line: inactive

Prompt line: `COc1ccc(N(CC(=O)NCCC[Te]c2ccccc2)C(=O)c2ccccc2)cc1` , same question.
Response line: inactive

Prompt line: `O=c1c2ccccc2nc(-c2ccccc2Cl)n1-c1nnc(C(F)(F)F)s1` , same question.
Response line: inactive

Prompt line: `Cn1cc(C(=O)C[n+]2ccccc2)c2ccccc21` , same question.
Response line: inactive
